Sequence of the target: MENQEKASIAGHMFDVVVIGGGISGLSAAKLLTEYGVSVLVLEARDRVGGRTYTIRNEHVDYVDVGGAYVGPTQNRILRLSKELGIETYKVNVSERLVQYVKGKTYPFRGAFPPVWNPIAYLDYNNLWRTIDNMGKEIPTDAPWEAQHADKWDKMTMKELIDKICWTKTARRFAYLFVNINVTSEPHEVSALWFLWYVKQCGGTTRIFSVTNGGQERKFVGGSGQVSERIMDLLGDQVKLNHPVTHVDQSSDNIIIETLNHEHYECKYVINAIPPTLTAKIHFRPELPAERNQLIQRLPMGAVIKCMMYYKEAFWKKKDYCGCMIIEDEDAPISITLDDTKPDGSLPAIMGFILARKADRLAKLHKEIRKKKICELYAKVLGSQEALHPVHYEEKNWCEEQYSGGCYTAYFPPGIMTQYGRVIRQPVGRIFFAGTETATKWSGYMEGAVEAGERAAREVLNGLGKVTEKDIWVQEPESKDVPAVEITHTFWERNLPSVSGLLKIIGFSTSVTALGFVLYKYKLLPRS
pIC50: −log10 of the molar value.
value.kind: pIC50

1. O=C(Nc1ccc(O)cc1)c1cc(=O)c2ccccc2o1: 4.19
2. COc1ccc(NC(=O)c2coc3ccccc3c2=O)cc1O: 5.08
3. O=C(Nc1ccc(O)c(O)c1)c1cc(=O)c2ccccc2o1: 6.72

----------
species: Homo sapiens; experiment: Selectivity index, ratio of IC50 for human MAO-A to IC50 for human MAO-B
Listed next: entries and their corresponding Ratio IC50.
value.kind: Ratio IC50

1. O=C(Nc1ccc([N+](=O)[O-])cc1)c1coc2ccccc2c1=O: 0.94
2. O=C(Nc1ccc(C(F)(F)F)cc1)c1coc2ccccc2c1=O: > 909
3. CCCNC(=O)c1coc2ccccc2c1=O: > 2.7
4. O=C(Nc1ccc(O)cc1)c1coc2ccccc2c1=O: 74
5. COc1ccc(NC(=O)c2coc3ccccc3c2=O)cc1OC: > 43

----------
The listing below reports pIC50 for molecules tested on Amine oxidase [flavin-containing] B (Homo sapiens, UniProt P27338).
Sequence (P27338 whole entry): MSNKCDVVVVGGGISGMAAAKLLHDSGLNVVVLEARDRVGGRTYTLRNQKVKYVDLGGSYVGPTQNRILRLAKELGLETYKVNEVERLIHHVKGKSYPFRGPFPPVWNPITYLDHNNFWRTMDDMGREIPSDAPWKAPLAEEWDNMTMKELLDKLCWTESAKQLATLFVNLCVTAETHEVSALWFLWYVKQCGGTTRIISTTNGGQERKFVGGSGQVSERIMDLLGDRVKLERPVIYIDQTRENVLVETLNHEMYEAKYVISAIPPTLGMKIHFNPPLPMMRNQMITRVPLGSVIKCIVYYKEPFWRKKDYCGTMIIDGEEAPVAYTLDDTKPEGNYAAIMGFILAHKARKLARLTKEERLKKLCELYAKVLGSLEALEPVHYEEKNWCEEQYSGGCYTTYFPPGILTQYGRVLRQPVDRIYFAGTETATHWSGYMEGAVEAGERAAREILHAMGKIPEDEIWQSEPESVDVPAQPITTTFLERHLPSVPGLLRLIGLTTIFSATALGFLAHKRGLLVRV
pIC50: −log10 of the molar value.
value.kind: pIC50

1. O=C(Nc1ccc(O)c(O)c1)c1coc2ccccc2c1=O: 6.80
2. O=C(Nc1ccc(C(F)(F)F)cc1)c1coc2ccccc2c1=O: 6.96
3. O=C(NC1CCCCC1)c1coc2ccccc2c1=O: 6.03
4. COc1ccc(NC(=O)c2coc3ccccc3c2=O)cc1O: 7.12
5. CCCNC(=O)c1coc2ccccc2c1=O: 4.42
6. O=C(Nc1ccc(O)cc1)c1cc(=O)c2ccccc2o1: 4.38
7. O=C(Nc1ccc([N+](=O)[O-])cc1)c1coc2ccccc2c1=O: 4.93
8. O=C(Nc1ccc(O)c(O)c1)c1cc(=O)c2ccccc2o1: 5.58
